Reported Ki against UniProtKB P08482, gathered from multiple publications, appears below.
Sequence (P08482 whole entry): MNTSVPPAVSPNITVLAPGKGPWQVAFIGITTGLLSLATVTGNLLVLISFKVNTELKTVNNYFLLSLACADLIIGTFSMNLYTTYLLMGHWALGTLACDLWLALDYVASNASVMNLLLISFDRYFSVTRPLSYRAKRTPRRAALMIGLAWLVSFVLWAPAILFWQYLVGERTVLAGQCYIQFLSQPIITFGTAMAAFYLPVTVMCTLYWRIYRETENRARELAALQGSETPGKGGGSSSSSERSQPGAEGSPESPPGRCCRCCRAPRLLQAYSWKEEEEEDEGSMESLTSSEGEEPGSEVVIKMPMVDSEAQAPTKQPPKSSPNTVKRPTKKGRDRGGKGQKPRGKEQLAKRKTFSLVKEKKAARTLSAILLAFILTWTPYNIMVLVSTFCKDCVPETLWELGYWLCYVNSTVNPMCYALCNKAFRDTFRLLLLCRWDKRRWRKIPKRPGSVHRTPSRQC
metric: Ki (µM)

Completed entries (count: 5):
C#CCCON=C1CCN(C)CC1	1.58
CN(CCCCCCNCCCCCCCCNCCCCCCN(CN1c2ccccc2C(=O)Nc2cccnc21)CN1c2ccccc2C(=O)Nc2cccnc21)CN1c2ccccc2C(=O)Nc2cccnc21	0.0234
CN1CCC(=NO)CC1	501
CC(=O)N[C@H]1CO[C@H](COS(=O)(=O)O)[C@@H](O[C@@H]2O[C@H](C(=O)O)[C@@H](O[C@H]3O[C@H](CO)[C@@H](O[C@@H]4O[C@@H](C(=O)O)[C@@H](O)[C@H](O)[C@H]4OS(=O)(=O)O)[C@H](OS(=O)(=O)O)[C@H]3NS(=O)(=O)O)[C@H](O)[C@H]2OS(=O)(=O)O)[C@@H]1O	0.0126
CCCCN1CCC(CCC(=O)c2cc(Cl)c(N)cc2OC)CC1	6.31

1 = C#CC(CC)ON=C1CCN(C)CC1 (centres undefined)
2 = CCN(CC)CC1CCCCN1CC(=O)N1c2ccccc2C(=O)Nc2cccnc21 (centres undefined)
## Task Could you tell me which of 1 and 2 has the lower Ki reading? Lab note: record the label of whichever item you select.
## Result 2
(2: 0.18 µM, 1: 6.3 µM)
